Examples of sequences with documented PBM binding z-score follow.
Tested on: RARg homodimer (NR concentration 270 nM)
method summary: PBM binding z-score (relative to random genomic background probes); higher = stronger binding; sequences stand for … in GC…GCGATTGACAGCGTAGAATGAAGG
Lab note: jot down the number only; don't add units.

Field: example entries. Status: answers known.
TATACACGGTCAAAGGCCAGAGTACGAATGTCGA : 2.87
GGAACGATGGCAAGTTGATAGCAGAGTTTGATGG : -0.158
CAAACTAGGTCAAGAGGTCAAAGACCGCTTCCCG : 7.8
CTCGAAAGGTCGTGCGCAGGTGAGTATACCAAAC : 3.83

Enquiry: Consider the sequence shown here: GATACAGGGTCAAGGCCAGGGTACGCGTATTGAT What is its recorded PBM binding z-score?
Return: 4.85

Enquiry: Consider the sequence shown here: CCTATTAGTTGACCATAAGAGCAACCGAAGCTCG What is its recorded PBM binding z-score?
Return: 0.927
